molecular target: ATP-dependent translocase ABCB1 (Homo sapiens, UniProt P08183); test: Inhibition of P-gp mediated efflux-pump activity in human MDR1 gene transfected mouse L5178 Y cells at 40 ug/mL by rhodamine 123 accumulation test; type: cell-based
Sequence (P08183 whole entry): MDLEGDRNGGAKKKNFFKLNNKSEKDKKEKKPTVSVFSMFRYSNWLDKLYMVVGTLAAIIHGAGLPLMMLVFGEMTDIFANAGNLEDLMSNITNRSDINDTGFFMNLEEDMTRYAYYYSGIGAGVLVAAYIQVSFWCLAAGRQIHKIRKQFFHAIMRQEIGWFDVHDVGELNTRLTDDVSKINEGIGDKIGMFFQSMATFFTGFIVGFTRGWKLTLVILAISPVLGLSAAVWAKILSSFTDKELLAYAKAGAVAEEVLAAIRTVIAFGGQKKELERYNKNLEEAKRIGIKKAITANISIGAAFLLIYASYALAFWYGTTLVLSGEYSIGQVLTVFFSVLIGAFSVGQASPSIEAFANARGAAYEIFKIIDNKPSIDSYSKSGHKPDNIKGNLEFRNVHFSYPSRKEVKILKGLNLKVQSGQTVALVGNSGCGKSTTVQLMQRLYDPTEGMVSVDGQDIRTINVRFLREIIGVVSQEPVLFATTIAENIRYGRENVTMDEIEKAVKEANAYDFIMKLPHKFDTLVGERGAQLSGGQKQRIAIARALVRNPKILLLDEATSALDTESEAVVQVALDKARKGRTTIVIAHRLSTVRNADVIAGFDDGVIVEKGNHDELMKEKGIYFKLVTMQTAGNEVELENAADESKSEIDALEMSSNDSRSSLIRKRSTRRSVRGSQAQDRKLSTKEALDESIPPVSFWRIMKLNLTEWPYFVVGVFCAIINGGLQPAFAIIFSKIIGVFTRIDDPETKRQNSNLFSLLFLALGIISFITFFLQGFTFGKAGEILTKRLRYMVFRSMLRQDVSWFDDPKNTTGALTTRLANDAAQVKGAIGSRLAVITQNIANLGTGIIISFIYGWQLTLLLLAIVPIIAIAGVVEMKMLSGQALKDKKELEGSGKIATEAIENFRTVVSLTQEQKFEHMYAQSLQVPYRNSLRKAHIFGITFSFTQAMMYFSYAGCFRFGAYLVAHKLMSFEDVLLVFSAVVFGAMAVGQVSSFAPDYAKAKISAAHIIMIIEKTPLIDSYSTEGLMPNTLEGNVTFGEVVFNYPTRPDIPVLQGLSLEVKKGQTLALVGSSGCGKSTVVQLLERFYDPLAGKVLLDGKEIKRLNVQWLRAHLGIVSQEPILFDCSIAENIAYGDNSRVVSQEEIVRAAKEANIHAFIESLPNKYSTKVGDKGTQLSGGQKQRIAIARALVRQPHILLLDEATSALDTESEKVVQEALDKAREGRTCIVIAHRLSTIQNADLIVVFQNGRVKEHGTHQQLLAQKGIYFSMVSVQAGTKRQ

MOLECULE	SYSTEM_NAME	Fluorescence intensity
C/C1=C\[C@@H]2[C@H](CC[C@@]3(C)O[C@@H]3C[C@@H](O)[C@@H](COC(=O)c3ccccc3)C[C@H](OC(=O)/C=C/c3ccccc3)C1=O)C2(C)C [LATILAGASCENES D]	ATP-dependent translocase ABCB1 (Homo sapiens, UniProt P08183)	714
C/C1=C\[C@@H]2[C@H](CC[C@@]3(C)O[C@@H]3[C@H]3[C@@H](O)[C@@H](C)C[C@]3(OC(=O)/C=C/c3ccccc3)C1=O)C2(C)C [JOLKINOL B]	ATP-dependent translocase ABCB1 (Homo sapiens, UniProt P08183)	649.3
CC1(C)[C@@H]2/C=C(\CO)C(=O)[C@@H](OC(=O)/C=C/c3ccccc3)C[C@H](COC(=O)c3ccccc3)[C@H](O)C[C@H]3O[C@]3(C)CC[C@@H]21 [LATILAGASCENES E]	ATP-dependent translocase ABCB1 (Homo sapiens, UniProt P08183)	810.8
C/C1=C\[C@@H]2[C@H](CC[C@@]3(C)O[C@@H]3C[C@@H](O)[C@@H](C)CC(OC(=O)c3ccccc3)C1=O)C2(C)C (some centres undefined) [LATILAGASCENES F]	ATP-dependent translocase ABCB1 (Homo sapiens, UniProt P08183)	1029.4

* * *

tested on: L5178Y; assay: Induction of apoptosis in human MDR1 gene transfected mouse L5178 Y cells assessed as necrosis at 75 ug/mL after 40 mins; format: functional
Recorded Activity for the following molecules
MEASURED_PARAMETER: Activity

MOLECULE	RESULT
C/C1=C\[C@@H]2[C@H](CC[C@@]3(C)O[C@@H]3C[C@@H](O)[C@@H](COC(=O)c3ccccc3)C[C@H](OC(=O)/C=C/c3ccccc3)C1=O)C2(C)C [LATILAGASCENES D]	6.83%
C/C1=C\[C@@H]2[C@H](CC[C@@]3(C)O[C@@H]3[C@H]3[C@@H](O)[C@@H](C)C[C@]3(OC(=O)/C=C/c3ccccc3)C1=O)C2(C)C [JOLKINOL B]	0.41%
CC(=O)OC[C@H]1C[C@H](OC(=O)/C=C/c2ccccc2)C(=O)/C(C)=C/[C@@H]2[C@H](CC[C@@]3(C)O[C@@H]3C[C@H]1OC(C)=O)C2(C)C [LATILAGASCENES C]	3.93%
CC(=O)OC[C@H]1C[C@H](OC(=O)/C=C/c2ccccc2)C(=O)/C(C)=C/[C@@H]2[C@H](CC[C@@]3(C)O[C@@H]3C[C@H]1O)C2(C)C [LATILAGASCENES A]	2.16%
C/C1=C\[C@@H]2[C@H](CC[C@@]3(C)O[C@@H]3C[C@@H](O)[C@@H](CO)C[C@H](OC(=O)/C=C/c3ccccc3)C1=O)C2(C)C [LATILAGASCENES B]	1.82%

* * *

Overview of reported Activity across a group of molecules:
test system: L5178Y; test: Induction of apoptosis in human MDR1 gene transfected mouse L5178 Y cells assessed as total apoptosis at 7 ug/mL after 40 mins; assay type: functional
MEASURED_PARAMETER: Activity (%)

> print(dat)
                              smiles.record  measured.parameter  result
1  C/C1=C\[C@@H]2[C@H](CC[C@@]3(C)O[C@@H]3[C@H]3[C@@H](O)[C@@H](C)C[C@]3(OC(=O)/C=C/c3ccccc3)C1=O)C2(C)C            Activity      27
2  C/C1=C\[C@@H]2[C@H](CC[C@@]3(C)O[C@@H]3C[C@@H](O)[C@@H](COC(=O)c3ccccc3)C[C@H](OC(=O)/C=C/c3ccccc3)C1=O)C2(C)C            Activity    34.7
3  CC(=O)OC[C@H]1C[C@H](OC(=O)/C=C/c2ccccc2)C(=O)/C(C)=C/[C@@H]2[C@H](CC[C@@]3(C)O[C@@H]3C[C@H]1OC(C)=O)C2(C)C            Activity    21.9
4  C/C1=C\[C@@H]2[C@H](CC[C@@]3(C)O[C@@H]3C[C@@H](O)[C@@H](CO)C[C@H](OC(=O)/C=C/c3ccccc3)C1=O)C2(C)C            Activity   18.96
5  CC(=O)OC[C@H]1C[C@H](OC(=O)/C=C/c2ccccc2)C(=O)/C(C)=C/[C@@H]2[C@H](CC[C@@]3(C)O[C@@H]3C[C@H]1O)C2(C)C            Activity    22.7
